B1: CLCN6 (parent)
chain: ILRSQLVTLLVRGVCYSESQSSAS

Variants of: B1
assay_summary: protein stability index of a GFP-peptide fusion (GPS, HEK-293T) (PSI 1-6); higher = more stable;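 note: lentivirally expressed fusions sorted by FACS into six bins by GFP to DsRed ratio, PSI derived from sequencing read proportions per bin multiplied by bin number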
condition_label: c terminus: a fixed tail appended
Binary classification by protein stability index, with 2 as an inclusive lower bound for yes; all other cases are no.

V11W yes

// query Is protein stability index at least 2? Consider S19L
// result yes

// query Reported protein stability index at or above 2? Y16T
// result yes

// query Kindly determine if protein stability index recorded for S22I is above or exactly 2.
// result yes

// query Does S19C have a reported protein stability index of at least 2?
// result yes

// query Please indicate if the recorded protein stability index for V11G meets or exceeds 2.
// result yes
